Quick list: pIC50 per entry.
# Test system: HIV-1NL4-3
# Protocol Summary: P4-MAGI assay
# Format: cell-based
# Setup Conditions: Human immunodeficiency virus 1, 24 h, P4 cells, 24 hour incubation, β-galactosidase expression; read-out: P4-MAGI IC50
pIC50: −log10 of the molar value.
Recorded Metric: pIC50

| Compound | Readout Number |
| --- | --- |
| C=C(C)[C@@H]1CC[C@]2(C(=O)NCCc3cc(C(=O)NCc4ccc(C(=O)OC)cn4)ccc3F)CC[C@]3(C)C(CCC4[C@@]5(C)CC[C@H](O)C(C)(C)C5CC[C@]43C)C12 (stereo partly drawn) [Example 260] | 6.82 |
| C=C(C)[C@@H]1CC[C@]2(C(=O)NCCc3cccc(C(=O)Nc4cc(C(=O)O)ccc4N)c3)CC[C@]3(C)C(CCC4[C@@]5(C)CC[C@H](O)C(C)(C)C5CC[C@]43C)C12 (stereo partly drawn) [Example 61] | 7.19 |
| C=C(C)[C@@H]1CC[C@]2(C(=O)NCCc3cccc(C(=O)NCc4ncccc4C(=O)O)c3)CC[C@]3(C)C(CCC4[C@@]5(C)CC[C@H](O)C(C)(C)C5CC[C@]43C)C12 (stereo partly drawn) [Example 228] | 6.87 |
